Tested on: HCT-15 colon
Experiment: NCI tumour cell line growth inhibition, 48 h
readout: TGI

# compound, TGI
measured = [
    ("c1ccc2c(c1)ncn2C1CCCCO1 (stereo not given)", "> 100 µM"),
    ("Cc1ccc(-n2[nH]nc(C#N)c2=O)cc1", "> 100 µM"),
    ("COc1cc(OC)c(C2CC=Cc3c(OC)cc(OC)c(OC)c32)cc1OC (stereo not given)", "> 100 µM"),
    ("CCOC(=O)C(C(=S)Nc1ccccc1)c1nn2c(=O)cc(C)nc2s1 (stereo not given)", "85 µM"),
    ("CC(C)[Si](OC1=CCC[C@H]2NC(=O)[C@@H](Cc3ccccc3)[C@@]12C)(C(C)C)C(C)C", "15.6 µM"),
]

Note: attention shifts to another entry.
Query CCOC(=O)c1ccc(C(=O)/C(C(C)=O)=C2\CCCN2C)n1C on HCT-15 colon; TGI returned: > 100 µM
